Field: viability, T/C. Provide a value for each of the molecules that follow.
# Tested on: 435261-313-R-J1-PDC complex spheroid viability;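 further: spheroids exposed to the agents for seven days before readout; percent of vehicle control viability with DMSO wells as 100%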
# PROTOCOL: Anticancer human tumor 435261-313-R-J1-PDC patient-derived colon adenocarcinoma cell line growth inhibition [GQUAD]
# EXPERIMENTAL_CONTEXT: second compound 0.1 µM; first compound 0.0999 µM; hits give low values

viability, T/C for CCc1c2c(nc3ccc(O)cc13)-c1cc3c(c(=O)n1C2)COC(=O)[C@]3(O)CC + CN(C)c1ccc(Nc2c3ccc(NC(=O)CCN4CCCC4)cc3nc3cc(NC(=O)CCN4CCCC4)ccc23)cc1 is 72.4%

Notebook: CCc1c2c(nc3ccc(O)cc13)-c1cc3c(c(=O)n1C2)COC(=O)[C@]3(O)CC + Cc1cnc(CNC(=O)c2c(=O)c3ccc(N4CCCN(C)CC4)nc3n3c2sc2ccccc23)cn1 , viability, T/C read as 47.1%

Data point: Cc1[nH]c2ccccc2c1CCNCc1ccc(/C=C/C(=O)NO)cc1 + Cc1[nH]c2ccc(F)cc2c1-c1nc2c3cccnc3c3ncccc3c2[nH]1 ; viability, T/C = 53.1%

Value of viability, T/C reported for the molecule Cc1[nH]c2ccccc2c1CCNCc1ccc(/C=C/C(=O)NO)cc1 + CN(C)c1ccc(Nc2c3ccc(NC(=O)CCN4CCCC4)cc3nc3cc(NC(=O)CCN4CCCC4)ccc23)cc1 is 50.8%

For this molecule ( Cn1ncnc1[C@H]1c2n[nH]c(=O)c3cc(F)cc(c23)N[C@@H]1c1ccc(F)cc1 + CN(C)c1ccc(Nc2c3ccc(NC(=O)CCN4CCCC4)cc3nc3cc(NC(=O)CCN4CCCC4)ccc23)cc1 ), measured viability, T/C is 88.2%

The value of viability, T/C measured for the molecule Cn1ncnc1[C@H]1c2n[nH]c(=O)c3cc(F)cc(c23)N[C@@H]1c1ccc(F)cc1 + Cc1cnc(CNC(=O)c2c(=O)c3ccc(N4CCCN(C)CC4)nc3n3c2sc2ccccc23)cn1 turned out to be 59.4%
